Target: T1, human TREM2 (human, UniProt Q9NZC2 19-174, limits assumed)
T1 sequence: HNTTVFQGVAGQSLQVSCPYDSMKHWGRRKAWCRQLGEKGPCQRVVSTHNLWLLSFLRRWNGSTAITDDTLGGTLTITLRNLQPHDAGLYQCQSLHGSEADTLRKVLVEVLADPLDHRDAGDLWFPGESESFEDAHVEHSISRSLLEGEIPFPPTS
Experiment: yeast-displayed Fab FACS, 2nd screen 2 nM
Listed here are binders together with their documented binding signal fold over 6E7 parental.
Dear colleague, please return just the value in fold, with no unit written.

Solved entries (count: 4):
V53 (Fab, V domains shown) VH: EVQLVQSGAEVKKPGESLKISCKGSGYSFTSYWIAWVRQMPGKGLEWMGIIYPGDSDTRYSPHFQGQVTISADKSISTAYLQWSSLKASDTAMYFCARQRTFYYDSSDYFDYWGQGTLVTVSS VL: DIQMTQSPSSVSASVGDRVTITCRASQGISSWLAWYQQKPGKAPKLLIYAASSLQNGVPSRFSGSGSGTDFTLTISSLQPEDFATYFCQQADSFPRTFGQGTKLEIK | 0.66
V40 (Fab, V domains shown) VH: EVQLVQSGAEVKKPGESLKISCKGSGYSFGSYWIAWVRQMPGKGLEWMGIIYPGDSDVRYSPSFQGQVTISADKSISTAYLQWSSLKASDTAMYFCARQRTFYYDSSDYSDYWGQGTLVTVSS VL: DIQMTQSPSSVSASVGDRVTITCRASQGISSWLAWYQQKPGKAPKLLIYAASSLQLGVPSRFSGSGSGTDFTLTISSLQPEDFATYFCQQADRFPRTFGQGTKLEIK | 3.41
V72 (Fab, V domains shown) VH: EVQLVQSGAEVKKPGESLKISCKGSGYSFTSYWIGWVRQMPGKGLEWMGIIYPGDSDTRYSPSFQGQVTISADKSISTAYLQWSSLKASDTAMYFCARGRTFYYDSSDYFDYWGQGTLVTVSS VL: DIQMTQSPSSVSASVGDRVTITCRASQGISSWLAWYQQKPGKAPKLLIYAASSLVNGVPSRFSGSGSGTDFTLTISSLQPEDFATYFCQQADSYPRTFGQGTKLEIK | 2.5
V51 (Fab, V domains shown) VH: EVQLVQSGAEVKKPGESLKISCKGSGYSFTSYWIAWVRQMPGKGLEWMGIIYPGDSDVRYSPSFQGQVTISADKSISTAYLQWSSLKASDTAMYFCARGRTFYYDSSDYFDNWGQGTLVTVSS VL: DIQMTQSPSSVSASVGDRVTITCRASQGISSWLAWYQQKPGKAPKLLIYAASSRQNGVPSRFSGSGSGTDFTLTISSLQPEDFATYFCQQADSFPRTFGQGTKLEIK | 1.83

Now look at this one.
# binding signal fold over 6E7 parental (binder: V74 (Fab, V domains shown) VH: EVQLVQSGAEVKKPGESLKISCKGSGYSFASYWIAWVRQMPGKGLEWMGIIYPGDSDVRYSPSFQGQVTISADKSISTAYLQWSSLKASDTAMYFCARGRTFYYDSSDYFDYWGQGTLVTVSS VL: DIQMTQSPSSVSASVGDRVTITCRASQGISSWLAWYQQKPGKAPKLLIYAASSLQLGVPSRFSGSGSGTDFTLTISSLQPEDFATYFCQQADSFPRTFGQGTKLEIK ) is 2.54
